# assay_protocol: in vivo
# condition_parameters: both, rhesus monkey, in vivo, po, 5 mg/kg

molecule: N[C@@H](CC(=O)N1CCn2c(nnc2C(F)(F)F)C1)Cc1cc(F)c(F)cc1F [sitagliptin]
k el: 2.28e-05 s⁻¹

====

# assay_protocol: in vivo
# condition_parameters: both, Macaca mulatta, in vivo, po
reported_endpoint: Tmax (h)

molecule: N[C@@H](CC(=O)N1CCn2c(nnc2C(F)(F)F)C1)Cc1cc(F)c(F)cc1F [sitagliptin]
result_units: h
recorded_result: 2

====

# assay_protocol: in vivo
# condition_parameters: both, rhesus monkey, in vivo, po, 5 mg/kg
reported_endpoint: Cmax (nM)

molecule: N[C@@H](CC(=O)N1CCn2c(nnc2C(F)(F)F)C1)Cc1cc(F)c(F)cc1F [sitagliptin]
reported_endpoint: Cmax
recorded_result: 768
